test system: NCI-H522; test: Growth inhibition of human NCI-H522 cells after 48 hrs by sulforhodamine B assay; format: functional; details: NCI-H522, 48 h
Item-by-item account of GI50
Write down the numeric answer in µM and omit the unit.

Field: example entries. Status: answers known.
- test.smiles: "CC1=NN(C(=O)c2nn(-c3ccc(Cl)cc3)cc2O)C(=O)C1"
  target.system: "NCI-H522"
  GI50, µM: 2.84
- test.smiles: "Cc1cc(C)n(C(=O)c2nn(-c3ccc(Cl)cc3)cc2O)n1"
  target.system: "NCI-H522"
  GI50, µM: 7.37
- test.smiles: "O=C(c1nn(-c2ccc(Cl)cc2)cc1O)n1nc(-c2ccco2)cc1C(F)(F)F"
  target.system: "NCI-H522"
  GI50, µM: 2.67

Look up GI50 for this compound: Cc1c2c(nn1C(=O)c1nn(-c3ccc(Cl)cc3)cc1O)-c1ccccc1CC2
0.055

Look up GI50 for this compound: O=C1CC(=O)N(C(=O)c2nn(-c3ccc(Cl)cc3)cc2O)N1
0.3

Look up GI50 for this compound: N#Cc1cnn(C(=O)c2nn(-c3ccc(Cl)cc3)cc2O)c1N
0.21
